Reference source: patent EP1421935A1

Target: hCA II (Homo sapiens, UniProt P00918)
Assay: CA inhibition, esterase method (4-nitrophenylacetate hydrolysis)
OBSERVED PROPERTY: Ki
Express your answer as a number followed by its unit.

Below, each entry is followed by its recorded Ki result.
NS(=O)(=O)c1ccc(CNC(=S)NCC(=O)NCC(=O)O)cc1
13 nM
N=C(N)NCCCC(NC(=S)NCc1ccc(S(N)(=O)=O)cc1)C(=O)O (centres unmarked)
18 nM
NS(=O)(=O)c1ccc(CNC(=S)NCCc2ccccc2)cc1
39 nM
NS(=O)(=O)c1ccc(CNC(=S)NC(Cc2ccc(O)cc2)C(=O)O)cc1 (centres unmarked)
3 nM
NS(=O)(=O)c1ccc(CNC(=S)Nc2ccccc2C(=O)O)cc1
11 nM
CC(C)CC(NC(=S)NCc1ccc(S(N)(=O)=O)cc1)C(=O)O (centres unmarked)
3 nM
NS(=O)(=O)c1ccc(CNC(=S)NC(Cc2c[nH]c3ccccc23)C(=O)O)cc1 (centres unmarked)
9 nM
NS(=O)(=O)c1ccc(CNC(=S)Nc2ccc(C(=O)O)cc2)cc1
9 nM
NS(=O)(=O)c1ccc(CNC(=S)N2CCCC2C(=O)O)cc1 (centres unmarked)
21 nM
NS(=O)(=O)c1ccc(CNC(=S)NC(CO)C(=O)O)cc1 (centres unmarked)
2 nM

Now look at this entry.
Need Ki of `NS(=O)(=O)c1ccc(CNC(=S)NCc2ccccn2)cc1` , thanks.
43 nM

###

Experiment: solubility in aqueous buffer (UV of saturated solution)
Settings: phosphate buffer, 25 °C, pH 7.4, aqueous buffer, thermodynamic from solid
OBSERVED PROPERTY: solubility (mM)
Field: numeric (mM). Do not append units.

Below, each entry is followed by its recorded solubility result.
NS(=O)(=O)c1ccc(CNC(=S)NC(CO)C(=O)O)cc1 (stereo not shown)
70
NS(=O)(=O)c1ccc(CNC(=S)NC(CS)C(=O)O)cc1 (stereo not shown)
65
NS(=O)(=O)c1ccc(CNC(=S)NC(C(=O)O)C(O)c2ccccc2)cc1 (stereo not shown)
51
NS(=O)(=O)c1ccc(CNC(=S)Nc2ccccc2C(=O)O)cc1
41
NS(=O)(=O)c1ccc(CNC(=S)Nc2cccc(C(=O)O)c2)cc1
40

Need solubility of NS(=O)(=O)c1ccc(CNC(=S)NC(C(=O)O)c2ccccc2)cc1 (stereo not shown) , thanks.
59

Need solubility of `NS(=O)(=O)c1ccc(CNC(=S)Nc2ccc(C(=O)O)cc2)cc1` , thanks.
46

###

Target: UniProtKB P00918
Each entry below lists one item and its recorded Ki value.
Express your answer as a number followed by its unit.

NS(=O)(=O)c1ccc(CNC(=S)NCCc2ccccn2)cc1 [B8]
38 nM

Need Ki of CC(C)CC(NC(=S)NCc1ccc(S(N)(=O)=O)cc1)C(=O)NCC(=O)O (stereo not drawn) [B44] , thanks.
4 nM

Need Ki of NC(=O)CCC(NC(=S)NCc1ccc(S(N)(=O)=O)cc1)C(=O)O (stereo not drawn) [B30] , thanks.
9 nM

Need Ki of NS(=O)(=O)c1ccc(CNC(=S)NC(CS)C(=O)O)cc1 (stereo not drawn) [B22] , thanks.
3 nM

###

Observed pKi values for hCA I (Homo sapiens, UniProt P00915) are listed in what follows.
Value format note: pKi is -log10 of concentration (mol/L); just state the number.

Below, each entry is followed by its recorded pKi result.
NS(=O)(=O)c1ccc(CNC(=S)NC(CC(=O)O)C(=O)O)cc1 (centres unmarked)
7.57
CC(C)CC(NC(=S)NCc1ccc(S(N)(=O)=O)cc1)C(=O)NCC(=O)O (centres unmarked)
7.70
CSCCC(NC(=S)NCc1ccc(S(N)(=O)=O)cc1)C(=O)O (centres unmarked)
7.72
CCC(C)C(NC(=S)NCc1ccc(S(N)(=O)=O)cc1)C(=O)O (centres unmarked)
7.74
NC(=O)CCC(NC(=S)NCc1ccc(S(N)(=O)=O)cc1)C(=O)O (centres unmarked)
7.44
CC(C)C(NC(=S)NCc1ccc(S(N)(=O)=O)cc1)C(=O)O (centres unmarked)
7.70
CC(C)CC(NC(=S)NCc1ccc(S(N)(=O)=O)cc1)C(=O)O (centres unmarked)
7.77
CC(O)C(NC(=S)NCc1ccc(S(N)(=O)=O)cc1)C(=O)O (centres unmarked)
7.62

Form: Entry = NS(=O)(=O)c1ccc(CNC(=S)NC(CS)C(=O)O)cc1 (centres unmarked) | System = hCA I (Homo sapiens, UniProt P00915) | pKi = ____
7.68

Form: Entry = `NS(=O)(=O)c1ccc(CNC(=S)NCCc2c[nH]cn2)cc1` | System = hCA I (Homo sapiens, UniProt P00915) | pKi = ____
7.06

Form: Entry = NS(=O)(=O)c1ccc(CNC(=S)NC(CC(=O)O)C(=O)NC(CC(=O)O)C(=O)NC(CC(=O)O)C(=O)NC(CC(=O)O)C(=O)O)cc1 (centres unmarked) | System = hCA I (Homo sapiens, UniProt P00915) | pKi = ____
7.29

Form: Entry = NS(=O)(=O)c1ccc(CNC(=S)NC(C(=O)O)c2ccccc2)cc1 (centres unmarked) | System = hCA I (Homo sapiens, UniProt P00915) | pKi = ____
7.40
